Below is a list of entries, each paired with its recorded melting point value.

Solved cases (6 shown):
>  <compound>
Cc1cccc(C(=O)NNC(=O)Cc2cccc(O)c2)c1 [compound 18]

>  <melting point>
156 to 157 °C

$$$$
>  <compound>
CCCc1cc(O)cc(O)c1C(=O)NNC(=O)Cc1cccc(O)c1 [compound 69]

>  <melting point>
198 to 200 °C

$$$$
>  <compound>
CCOc1cccc(C(=O)NNC(=O)Cc2cccc(O)c2)c1 [compound 42]

>  <melting point>
130 to 132 °C

$$$$
>  <compound>
NC(=O)c1cc(C(=O)NNC(=O)Cc2cccc(O)c2)c(O)cc1O [compound 85]

>  <melting point>
260 to 261 °C

$$$$
>  <compound>
O=C(Cc1cccc(O)c1)NNC(=O)c1cccc(Br)c1 [compound 33]

>  <melting point>
194 to 195 °C

$$$$
>  <compound>
O=C(Cc1cccc(O)c1)NNC(=O)c1ccccc1C(F)(F)F [compound 47]

>  <melting point>
195 to 196 °C

$$$$

Please look at the following compound next.
What value of melting point has been recorded for this entry: O=C(Cc1cccc(O)c1)NNC(=O)c1cccc(O)c1 [compound 6]
224 to 225 °C

* * *

Below is a list of entries, each paired with its recorded melting point value.

>  <compound>
O=C(Cc1cccc(O)c1)NNC(=O)c1ccc(F)c(F)c1

>  <result>
164 °C

$$$$
>  <compound>
O=C(Cc1cccc(O)c1)NNC(=O)c1ccc(O)cc1Cl

>  <result>
165 to 166 °C

$$$$
>  <compound>
COc1ccc(C(=O)NNC(=O)Cc2cccc(O)c2)c(C)c1

>  <result>
171 to 172 °C

$$$$
>  <compound>
COc1cc(Cl)c(C(=O)NNC(=O)Cc2cccc(O)c2)cc1OC

>  <result>
174 to 175 °C

$$$$
>  <compound>
O=C(Cc1cccc(O)c1)NNC(=O)c1ccc(CCl)cc1

>  <result>
175 to 176 °C

$$$$
>  <compound>
O=C(Cc1cccc(O)c1)NNC(=O)c1ccc(Br)cc1

>  <result>
229 °C

$$$$
>  <compound>
O=C(Cc1cccc(O)c1)NNC(=O)c1cccc(F)c1

>  <result>
176 to 177 °C

$$$$
>  <compound>
O=C(Cc1cccc(O)c1)NNC(=O)c1c(O)cc(O)cc1F

>  <result>
230 to 232 °C

$$$$
>  <compound>
Cc1ccccc1C(=O)NNC(=O)Cc1cccc(O)c1

>  <result>
197 to 198 °C

$$$$
>  <compound>
COc1cc(C(=O)NNC(=O)Cc2cccc(O)c2)c([N+](=O)[O-])cc1OC

>  <result>
226 to 227 °C

$$$$

What value of melting point has been recorded for this entry: `O=C(Cc1cccc(O)c1)NNC(=O)c1ccc(OC(F)(F)F)cc1`
189 to 190 °C

What value of melting point has been recorded for this entry: `O=C(Cc1cccc(O)c1)NNC(=O)c1cc([N+](=O)[O-])cc([N+](=O)[O-])c1`
248 to 249 °C

What value of melting point has been recorded for this entry: `Cc1c(O)ccc(C(=O)NNC(=O)Cc2cccc(O)c2)c1C`
251 °C

What value of melting point has been recorded for this entry: `COc1cc(O)ccc1C(=O)NNC(=O)Cc1cccc(O)c1`
208 to 209 °C

What value of melting point has been recorded for this entry: `O=C(Cc1cccc(O)c1)NNC(=O)c1cccc(Cl)c1Cl`
220 to 221 °C

What value of melting point has been recorded for this entry: `O=C(Cc1cccc(O)c1)NNC(=O)c1ccc(O)cc1`
207 to 208 °C

What value of melting point has been recorded for this entry: `O=C(Cc1cccc(O)c1)NNC(=O)c1ccccc1O`
214 to 215 °C

What value of melting point has been recorded for this entry: `O=C(Cc1cccc(O)c1)NNC(=O)c1ccccc1F`
154 to 155 °C

What value of melting point has been recorded for this entry: `O=C(Cc1cccc(O)c1)NNC(=O)c1ccc(O)c(Cl)c1`
230 to 231 °C

What value of melting point has been recorded for this entry: O=C(Cc1cccc(O)c1)NNC(=O)c1c(O)cc(O)cc1Br [compound 73]
259 °C

* * *

readout_label: melting point

Solved cases (4 shown):
>  <compound>
COc1ccc(C(=O)NNC(=O)Cc2cccc(O)c2)cc1 [compound 36]

>  <result>
158 to 159 °C

$$$$
>  <compound>
CCc1c(C(=O)NNC(=O)Cc2cccc(O)c2)ccc(O)c1Cl [compound 84]

>  <result>
259 °C

$$$$
>  <compound>
Cc1cc(O)cc(O)c1C(=O)NNC(=O)Cc1cccc(O)c1 [compound 57]

>  <result>
226 to 227 °C

$$$$
>  <compound>
Cc1cc(C(=O)NNC(=O)Cc2cccc(O)c2)ccc1O [compound 75]

>  <result>
207 to 208 °C

$$$$

What value of melting point has been recorded for this entry: Nc1cc(C(=O)NNC(=O)Cc2cccc(O)c2)ccc1O [compound 78]
264 to 265 °C

What value of melting point has been recorded for this entry: COc1cc(I)c(C(=O)NNC(=O)Cc2cccc(O)c2)cc1OC [compound 10]
199 to 200 °C

What value of melting point has been recorded for this entry: O=C(Cc1cccc(O)c1)NNC(=O)c1ccc(O)c(Cl)c1O [compound 81]
252 to 253 °C

What value of melting point has been recorded for this entry: CCc1cc(OCc2ccccc2)ccc1C(=O)NNC(=O)Cc1cccc(O)c1 [compound 59]
190 to 191 °C

* * *

readout_label: melting point

Solved cases (3 shown):
>  <chem_smiles>
O=C(Cc1cccc(O)c1)NNC(=O)c1ccc2ccccc2c1

>  <readout_label>
melting point

>  <result>
201 to 202 °C

$$$$
>  <chem_smiles>
N#Cc1cccc(C(=O)NNC(=O)Cc2cccc(O)c2)c1

>  <readout_label>
melting point

>  <result>
181.5 to 182.5 °C

$$$$
>  <chem_smiles>
O=C(Cc1cccc(O)c1)NNC(=O)c1ccc(O)cc1C(F)(F)F

>  <readout_label>
melting point

>  <result>
210 to 212 °C

$$$$

What value of melting point has been recorded for this entry: `N#Cc1cc(C(=O)NNC(=O)Cc2cccc(O)c2)c(O)cc1O`
258 °C

What value of melting point has been recorded for this entry: `O=C(Cc1cccc(O)c1)NNC(=O)c1cc(Cl)ccc1Br`
212 to 213 °C

What value of melting point has been recorded for this entry: `O=C(Cc1cccc(O)c1)NNC(=O)c1ccccc1[N+](=O)[O-]`
206 to 207 °C

What value of melting point has been recorded for this entry: `COc1cc(OCc2ccccc2)ccc1C(=O)NNC(=O)Cc1cccc(O)c1`
193 to 194 °C

What value of melting point has been recorded for this entry: `O=C(Cc1cccc(O)c1)NNC(=O)c1ccc([N+](=O)[O-])cc1`
222 to 223 °C

What value of melting point has been recorded for this entry: `CCc1cc(O)ccc1C(=O)NNC(=O)Cc1cccc(O)c1`
199 to 200 °C

* * *

readout_label: melting point

Solved cases (3 shown):
>  <chem_smiles>
O=C(Cc1cccc(O)c1)NNC(=O)c1cc(Cl)c(O)cc1O

>  <melting point>
269 to 270 °C

$$$$
>  <chem_smiles>
O=C(Cc1cccc(O)c1)NNC(=O)c1cccc(OCc2ccccc2)c1

>  <melting point>
152 to 153 °C

$$$$
>  <chem_smiles>
CCOc1ccc2ccccc2c1C(=O)NNC(=O)Cc1cccc(O)c1

>  <melting point>
148 to 150 °C

$$$$

What value of melting point has been recorded for this entry: `COc1cccc(C(=O)NNC(=O)Cc2cccc(O)c2)c1`
138 to 139 °C

What value of melting point has been recorded for this entry: `O=C(Cc1cccc(O)c1)NNC(=O)c1ccc(O)c([N+](=O)[O-])c1`
190 to 193 °C

What value of melting point has been recorded for this entry: `O=C(Cc1cccc(O)c1)NNC(=O)c1cccc2ccccc12`
210 to 211 °C

What value of melting point has been recorded for this entry: `COc1cc(F)c(C(=O)NNC(=O)Cc2cccc(O)c2)c(F)c1`
198 to 199 °C

What value of melting point has been recorded for this entry: `Cc1cc(C(=O)NNC(=O)Cc2cccc(O)c2)c(O)cc1O`
240 °C

* * *

Below is a list of entries, each paired with its recorded melting point value.

Solved cases (4 shown):
>  <compound>
COc1cc(O)cc(Cl)c1C(=O)NNC(=O)Cc1cccc(O)c1

>  <melting point>
105 to 106 °C

$$$$
>  <compound>
Cc1cc(OCc2ccccc2)cc(OCc2ccccc2)c1C(=O)NNC(=O)Cc1cccc(O)c1

>  <melting point>
165 to 166 °C

$$$$
>  <compound>
O=C(Cc1cccc(O)c1)NNC(=O)c1ccccc1Cl

>  <melting point>
172 °C

$$$$
>  <compound>
COc1ccc(CC(=O)NNC(=O)c2c(C)cc(O)cc2O)cc1O

>  <melting point>
232 to 233 °C

$$$$

What value of melting point has been recorded for this entry: `CCCCCc1cc(O)cc(O)c1C(=O)NNC(=O)Cc1cccc(O)c1`
230 °C

What value of melting point has been recorded for this entry: `O=C(Cc1cccc(O)c1)NNC(=O)c1ccc(Cl)cc1Cl`
202 to 203 °C

What value of melting point has been recorded for this entry: `O=C(Cc1cccc(O)c1)NNC(=O)c1ccccc1`
162 to 163 °C

What value of melting point has been recorded for this entry: `Cc1ccc(C(=O)NNC(=O)Cc2cccc(O)c2)cc1`
175 to 176 °C

What value of melting point has been recorded for this entry: `CC(C)(C)c1cc(C(=O)NNC(=O)Cc2cccc(O)c2)ccc1O`
154 to 157 °C

What value of melting point has been recorded for this entry: O=C(Cc1cccc(O)c1)NNC(=O)c1c(O)cc(O)cc1Br [compound 63]
226 to 227 °C

What value of melting point has been recorded for this entry: `O=C(Cc1cccc(O)c1)NNC(=O)c1ccc(OCc2ccccc2)cc1`
199 to 200 °C

Reference source for all entries: patent US7767716B2
